The reported numbers originate from ChEMBL document CHEMBL3621132.

test: Half life in rat at 2 mg/kg, iv; format: ADME, organism-based; settings: in vivo
// half-life lookup, one value per entry
Report the value in h with no unit label.

# MOLECULE_SMILES, half-life, h
measured = [
    ("Cc1ncc(Cl)c(N2CC[C@@H](C)N(C(=O)c3ccccc3-n3nccn3)CC2)n1", 3.2),
]

Task item: Consider the compound `COc1nc(N2CC[C@@H](C)N(C(=O)c3cc(C)ccc3-n3nccn3)CC2)ncc1C(F)(F)F` and give its measured half-life.
Reply: 1.1

====

assay: Oral bioavailability in dog at 3 mg/kg; type: ADME, organism-based, Canis lupus familiaris; conditions: in vivo
MEASUREMENT_LABEL: bioavailability
Your answer should be a number followed by the unit of measure.

# MOLECULE_SMILES, bioavailability
records = [
    ("Cc1ncc(Cl)c(N2CC[C@@H](C)N(C(=O)c3ccccc3-n3nccn3)CC2)n1", "19%"),
]

# context switch: different compound, same bioavailability
Task item: If you can, please state the reported bioavailability value of `COc1nc(N2CC[C@@H](C)N(C(=O)c3cc(C)ccc3-n3nccn3)CC2)ncc1C(F)(F)F` .
Reply: 23%

====

Measured bioavailability, listed per entry.
assay: Oral bioavailability in rat at 10 mg/kg; type: ADME, organism-based; conditions: in vivo
A complete answer gives the number and then names the unit.

# MOLECULE_SMILES, OBS_VALUE
records = [
    ("Cc1ncc(Cl)c(N2CC[C@@H](C)N(C(=O)c3ccccc3-n3nccn3)CC2)n1", "35%"),
]

# ---- query compound ----
Task item: Which bioavailability value belongs to `COc1nc(N2CC[C@@H](C)N(C(=O)c3cc(C)ccc3-n3nccn3)CC2)ncc1C(F)(F)F` ?
Reply: 8%

====

experiment: Cmax in mouse at 300 mg/kg, po; type: ADME, organism-based; set-up: dose 300 mg/kg, route oral; details: in vivo
MEASUREMENT_LABEL: Cmax (µM)
Quick note: give the figure in µM, leave out the unit.

Task item: # input molecule: `Cc1ncc(Cl)c(N2CC[C@@H](C)N(C(=O)c3ccccc3-n3nccn3)CC2)n1` ; wanted: its Cmax
Reply: 18

====

target: UniProt O43613
MEASUREMENT_LABEL: Ki (nM)
Dear colleague, please return just the value in nM, with no unit written.

Examples from the recorded data:
# MOLECULE_SMILES, UNITS_LABEL, OBS_VALUE
data = [
    ("COc1nc(N2CC[C@@H](C)N(C(=O)c3cc(C)ccc3-n3nccn3)CC2)ncc1C(F)(F)F", "nM", 1.5),
    ("Cc1ccc(-n2nccn2)c(C(=O)N2CCN(c3ncc(Cl)c(C)n3)CC[C@H]2C)c1", "nM", 6.1),
    ("Cc1cnc(Cl)nc1N1CC[C@@H](C)N(C(=O)c2ccccc2-n2nccn2)CC1", "nM", 760),
]

Okay, next one:
Task item: Could you tell me which Ki is on file for `Cc1ncc(C)c(N2CC[C@@H](C)N(C(=O)c3ccccc3-n3nccn3)CC2)n1` ?
Reply: 3600

====

target: Orexin receptor type 2 (Homo sapiens) (UniProt O43614); test: Binding affinity to human orexin 2 receptor expressed in CHO cells after 3 hrs by radioligand binding assay
MEASUREMENT_LABEL: pKi
# reply with the number alone; pKi is -log10 of concentration in mol/L

# MOLECULE_SMILES, pKi
records = [
    ("Cc1ncc(Cl)c(N2CC[C@@H](C)N(C(=O)c3ccccc3-n3nccn3)CC2)n1", 8.44),
]

Task item: What value of measured pKi is listed for `COc1nc(N2CC[C@@H](C)N(C(=O)c3cc(C)ccc3-n3nccn3)CC2)ncc1C` ?
Reply: 9.22

Task item: # repeat for `Cc1ncc(C(F)(F)F)c(N2CC[C@@H](C)N(C(=O)c3ccccc3-n3nccn3)CC2)n1`
Reply: 7.51

Task item: Again, but for `Cc1ccc(-n2nccn2)c(C(=O)N2CCN(c3ncc(C(F)(F)F)c(Cl)n3)CC[C@H]2C)c1`
Reply: 9.22

Task item: Entry to check: `COc1nc(N2CC[C@@H](C)N(C(=O)c3ccccc3-n3nccn3)CC2)ncc1C(F)(F)F`
Reply: 9.15

====

assay: Volume of distribution at steady state in dog at 0.125 mg/kg, iv; assay type: ADME, organism-based, Canis lupus familiaris; conditions: in vivo, read-out: Vdss
MEASUREMENT_LABEL: Vd (L/kg)
Answer format: numeric, L/kg implied, no suffix.

Task item: Would you mind telling me what Vd value was observed for `COc1nc(N2CC[C@@H](C)N(C(=O)c3cc(C)ccc3-n3nccn3)CC2)ncc1C(F)(F)F` ?
Reply: 0.4

====

assay: AUC in rat at 10 mg/kg, po; format: ADME, organism-based; details: in vivo
MEASUREMENT_LABEL: AUC (µM·h)
Could you give me the number in µM·h? Just the number is fine.

# MOLECULE_SMILES, MEASUREMENT_LABEL, OBS_VALUE
measured = [
    ("Cc1ncc(Cl)c(N2CC[C@@H](C)N(C(=O)c3ccccc3-n3nccn3)CC2)n1", "AUC", 1.2),
]

Attention now turns to another entry.
Task item: Endpoint output: AUC of `COc1nc(N2CC[C@@H](C)N(C(=O)c3cc(C)ccc3-n3nccn3)CC2)ncc1C(F)(F)F` . Value?
Reply: 0.6

====

experiment: Half life in dog at 0.5 mg/kg, iv; assay type: ADME, organism-based, Canis lupus familiaris; conditions: in vivo
MEASUREMENT_LABEL: half-life
The answer should read as a number with its unit following.

Task item: What does the record list as half-life for `Cc1ncc(Cl)c(N2CC[C@@H](C)N(C(=O)c3ccccc3-n3nccn3)CC2)n1` ?
Reply: 54 min

====

Each entry below lists one item and its recorded AUC value.
assay: AUC in dog at 3 mg/kg, po; assay type: ADME, organism-based, Canis lupus familiaris; details: in vivo
Please give a number only; it is taken to be in µM·h.

# MOLECULE_SMILES, MEASUREMENT_LABEL, UNITS_LABEL, OBS_VALUE
records = [
    ("COc1nc(N2CC[C@@H](C)N(C(=O)c3cc(C)ccc3-n3nccn3)CC2)ncc1C(F)(F)F", "AUC", "µM·h", 9.9),
]

Attention now shifts to the item below.
Task item: # get_value(readout='AUC', item= `Cc1ncc(Cl)c(N2CC[C@@H](C)N(C(=O)c3ccccc3-n3nccn3)CC2)n1` )
Reply: 1.8

====

test: Volume of distribution at steady state in dog at 0.5 mg/kg, iv; assay type: ADME, organism-based, Canis lupus familiaris; settings: in vivo, read-out: Vdss
MEASUREMENT_LABEL: Vd (L/kg)
The reply should contain only the number, in L/kg.

Task item: Find the recorded Vd belonging to `Cc1ncc(Cl)c(N2CC[C@@H](C)N(C(=O)c3ccccc3-n3nccn3)CC2)n1` and report it.
Reply: 0.8

====

These records show Ki for UniProtKB O43613.
Report the figure in nM without appending any unit label.

Please review the following examples before continuing.
# MOLECULE_SMILES, UNITS_LABEL, Ki
measured = [
    ("C[C@@H]1CCN(c2ncc(C(F)(F)F)c(Cl)n2)CCN1C(=O)c1ccccc1-n1nccn1", "nM", 5.1),
    ("Cc1nc(N2CC[C@@H](C)N(C(=O)c3ccccc3-n3nccn3)CC2)ncc1C(F)(F)F", "nM", 11),
    ("Cc1ccc(-n2nccn2)c(C(=O)N2CCN(c3ncc(C(F)(F)F)c(Cl)n3)CC[C@H]2C)c1", "nM", 0.7),
    ("COc1nc(N2CC[C@@H](C)N(C(=O)c3ccccc3-n3nccn3)CC2)ncc1C(F)(F)F", "nM", 6.3),
]

Continue with the compound presented below.
Task item: Record request: Ki value, item `Cc1ccc(-n2nccn2)c(C(=O)N2CCN(c3ncc(C(F)(F)F)c(C)n3)CC[C@H]2C)c1`
Reply: 1.6

====

experiment: Volume of distribution at steady state in rat at 2 mg/kg, iv; assay type: ADME, organism-based; conditions: in vivo, read-out: Vdss
MEASUREMENT_LABEL: Vd (L/kg)
Report only the number, with the unit L/kg understood.

# MOLECULE_SMILES, UNITS_LABEL, Vd
measured = [
    ("Cc1ncc(Cl)c(N2CC[C@@H](C)N(C(=O)c3ccccc3-n3nccn3)CC2)n1", "L/kg", 7),
]

Would you kindly look at the next entry?
Task item: Given the entry `COc1nc(N2CC[C@@H](C)N(C(=O)c3cc(C)ccc3-n3nccn3)CC2)ncc1C(F)(F)F` , report its measured Vd.
Reply: 2.5

====

assay: Tmax in rat at 10 mg/kg, po; assay type: ADME, organism-based; conditions: in vivo
A collection of molecules and their measured Tmax
Write the number in h without appending the unit.

# MOLECULE_SMILES, UNITS_LABEL, OBS_VALUE
data = [
    ("COc1nc(N2CC[C@@H](C)N(C(=O)c3cc(C)ccc3-n3nccn3)CC2)ncc1C(F)(F)F", "h", 3),
]

We now examine a further molecule.
Task item: Which Tmax value belongs to `Cc1ncc(Cl)c(N2CC[C@@H](C)N(C(=O)c3ccccc3-n3nccn3)CC2)n1` ?
Reply: 0.4
